Measured On: Bcl-xL (Homo sapiens)
Assay Overview: Binding affinity to human Bcl-xL protein by fluorescence polarization assay

{"Molecule Smiles": "O=C(c1ccc(Oc2ccccc2)cc1)c1cc(C(=O)c2nc3ccccc3s2)c(O)c(O)c1O", "Measured On": "Bcl-xL (Homo sapiens)", "Ki (nM)": 1110}

Reference source: BindingDB's records for doi:10.1021/jm701358v
